Target: human dopamine transporter (hDAT) (Homo sapiens, UniProt Q01959)
Sequence (Q01959 whole entry): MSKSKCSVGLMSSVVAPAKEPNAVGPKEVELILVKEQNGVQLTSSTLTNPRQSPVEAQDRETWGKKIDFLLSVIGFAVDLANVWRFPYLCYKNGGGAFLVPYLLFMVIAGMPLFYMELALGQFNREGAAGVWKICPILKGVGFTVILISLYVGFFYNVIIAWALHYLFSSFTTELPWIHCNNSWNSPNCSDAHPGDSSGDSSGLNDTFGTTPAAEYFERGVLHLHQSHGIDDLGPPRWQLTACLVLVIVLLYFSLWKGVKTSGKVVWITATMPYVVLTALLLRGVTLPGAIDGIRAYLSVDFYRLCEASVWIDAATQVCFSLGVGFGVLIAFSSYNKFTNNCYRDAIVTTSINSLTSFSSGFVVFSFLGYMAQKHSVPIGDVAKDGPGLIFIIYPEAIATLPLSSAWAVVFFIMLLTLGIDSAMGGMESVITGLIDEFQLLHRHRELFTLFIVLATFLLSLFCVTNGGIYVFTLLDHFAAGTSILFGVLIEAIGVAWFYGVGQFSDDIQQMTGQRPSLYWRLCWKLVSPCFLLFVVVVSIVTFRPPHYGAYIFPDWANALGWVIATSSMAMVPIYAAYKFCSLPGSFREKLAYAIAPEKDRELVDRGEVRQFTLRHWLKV
Test: cell-based
Settings: Reuptake Inhibition [3H]DA IC50, Table 3-1
Entries and their measured IC50 follow.
Write it as a number; the unit µM goes unstated.

[
  {
    "molecule": "O=C(NCc1ccc(F)cc1)NC1CCN(CCCCOC(c2ccc(F)cc2)c2ccc(F)cc2)CC1 [Compound 18]",
    "meas.value": 1.05
  }
]

Challenge: Given the entry O=C(Nc1ccc(F)cc1)NC1CCN(CCCCOC(c2ccc(F)cc2)c2ccc(F)cc2)CC1 [Compound 17] , what IC50 was observed with human dopamine transporter (hDAT) (Homo sapiens, UniProt Q01959)?
Response given: 7
